All figures here come from ChEMBL document CHEMBL1201862.

Test system: NCI/ADR-RES
measurementDescription: NCI tumour cell line growth inhibition, 48 h
Calls of active or inactive are those of the source. No stated cut-off is given here; in the data, active = GI50 up to about 1.1 µM and inactive = higher.
Outcome (select one): active, inactive

Recorded results for 2 compounds are shown here.
| compound | assignedCategory |
| --- | --- |
| COc1cc2oc(=O)ccc2cc1CC=C(C)C | inactive |
| O=C1CSC(c2ccc([N+](=O)[O-])cc2)N1c1ccc(-n2c(-c3ccccc3)nc3ccccc3c2=O)cc1 (stereo unspecified) | inactive |

Exam item: Fill in: this test's call for "CN(C)c1ccc(/C=C/c2nc3ccccc3s2)cc1" is ___
Marked response: inactive

Exam item: Fill in: this test's call for C1=CC(=[N+]2N=C(c3ccccc3)CC2c2ccccc2)C=CC1=C1SC(c2ccccc2)(c2ccccc2)c2ccccc21.[O-][Cl+3]([O-])([O-])[O-] (stereo unspecified) is ___
Marked response: inactive

Exam item: Fill in: this test's call for "CC1=COC2=C(C)C(=O)C(=O)c3c(C)ccc1c32" is ___
Marked response: inactive

Exam item: Fill in: this test's call for CC(=O)N(C(=O)CC(=O)N1N=C(c2ccccc2)C(/N=N/c2ccccc2[N+](=O)[O-])C1=O)c1ccc(Cl)cc1 (stereo unspecified) is ___
Marked response: inactive

Exam item: Fill in: this test's call for CC[C@@H]1/C=C/C=C/C[C@H](C)[C@@H](O)[C@](C)(O)C(=O)[C@H](C)[C@@H](O)[C@H](C)C(=O)[C@H](C)[C@@H](O)[C@H](C)/C=C/C(=O)O[C@H]2[C@@H](C)[C@@H](CC1)O[C@]1(O[C@H](CC(C)O)[C@H](C)CC1=O)[C@@H]2C (stereo partly specified) is ___
Marked response: active

Exam item: Fill in: this test's call for "O=C(O)c1cnc(-n2[nH]c3c(c2=O)CCCC3)[nH]c1=O" is ___
Marked response: inactive

====

System: A498
measurementDescription: NCI tumour cell line growth inhibition, 48 h
The source made the active and inactive calls. Cut-off read from the data, not from the text of the source: active = GI50 up to about 1.1 µM and inactive = higher. Starred links: 1 amine or outer side, 2 acyl side, 3 side chain; linkers in the order of their positions; H or OH if unused. Non-standard residues stand in square brackets, D forms with d. Residues, ends and D or L forms follow the SMILES beside them. X4 = C[C@H](N[*:1])C(=O)C(C)(C)C(=O)[*:2]; Hmpa(2S,3S) = CC[C@H](C)[C@H](O)C(=O)O; NMeY = CN[C@@H](Cc1ccc(O)cc1)C(=O)O; NMeL = CN[C@@H](CC(C)C)C(=O)O; NMeV = CN[C@H](C(=O)O)C(C)C; βAla = NCCC(=O)O
Outcome (select one): y for active, n for inactive

Recorded results for 5 molecules are shown here.
| molecule | assignedCategory |
| --- | --- |
| COC(=O)[C@@H](O)[C@](O)(CCC(C)C)C(=O)O[C@@H]1C(OC)=C[C@]23CCCN2CCc2cc4c(cc2[C@H]13)OCO4 | n |
| C=C(C)CCC(=O)[C@](C)(O)[C@H]1[C@H](O)C[C@@]2(C)[C@@H]3CCc4c(cc(OC5OC(CO)C(O)C(O)C5O)c(O)c4C)C3(C)C(=O)C[C@]12C (stereo partly specified) | n |
| Cc1nc(-n2nc(-c3ccccc3)cc2-c2ccccc2)sc1C(=O)/C=C/c1ccccc1 | n |
| CC(=O)OC1C=C(C=O)C(O)(C=O)C2(C)CCCC(C)(C)C12 (stereo unspecified) | n |
| CC[C@H](C)[C@@H]1OC(=O)CCNC(=O)[C@@H](C)NC(=O)C(C)(C)C(=O)[C@H](C)NC(=O)[C@H](Cc2ccc(OC)cc2)N(C)C(=O)[C@H](C(C)C)N(C)C(=O)CNC(=O)[C@H](CC(C)C)N(C)C(=O)CNC1=O (cyclo(G[NMeL]G[NMeV][NMeY](Me)[X4][dA][βAla][Hmpa(2S,3S)])) | n |

Moving on to the next molecule.
Exam item: Fill in: this test's call for [N-]=[N+]=NC1(c2ccccc2)C(=O)Nc2ccccc2C1=O (stereo unspecified) is ___
Marked response: y
